Measured Size (nm) accompanies every entry in the list below.
EXPERIMENT DESCRIPTION: Particle size and polydispersity index of nanoparticle compositions (Zetasizer Nano ZS)
Type: physicochemical
SETTINGS: nanoparticle composition lipid:DSPC:cholesterol:PEG-DMG 50:10:38.5:1.5 mol %, mRNA encoding Luc or hEPO (Table 1A)
MEASURED PARAMETER: Size (nm)

{"columns": ["COMPOUND", "UOM", "OBSERVED MEASUREMENT"],
 "data": [
  ["CCCCCCCCCOC(=O)CCCCCCCN(CCCCCCCC(=O)OC(CCCCCCCC)CCCCCCCC)CCCN/C(=C/[N+](=O)[O-])NC [Compound 170]", "nm", 71.7],
  ["CCCCCCCCCOC(=O)CCCCCCCN(CCCCCCCC(=O)OC(CCCCCCCC)CCCCCCCC)C(C)CO (stereo not drawn) [Compound 157]", "nm", 69.6],
  ["CCCCCCCCC(CCCCCCCC)OC(=O)CCCCCCCN(CCO)CCCCCC(=O)OC(CCCCCCCC)C1CC1 (stereo not drawn) [Compound 128]", "nm", 69.4]
]}

Numbers sourced from patent US12404232B2.
